system: K4 kissing-loop RNA reporter; experiment: apparent KD of K4 kissing-loop reporter; higher = weaker reporter binding; conditions: Eterna round: R107; input ligand: tryptophan 2.4 mM
test.readout: apparent KD of K4 kissing-loop reporter

Use these answered entries as a reference point.
GGACGACAGGCGGCCGCCACUCAAAGCAGCCAGCGAGUGAUGUUCGUGGCGGAGUGAUGUUCCUAGAGGACCGGGUCUGCAGUUC [Same State Tryptophan B GF 18]    362 nM
AGUGAUGUUUCUUUUAAGAGUGAUGUUUUUCGAGGACCGGUACGGCCGCCACUCGAGUGAUGAGUGCGUCGUUGUGGUGAUUAGU [#13 K4 Tryptophan A Exclusion]    229 nM
AGUAGGAAACUACAAUCCUCUCUUACUGAAGGAGCGCGUGAAAACGCAGGUAGGUCGCAGGAUUGGAGAGUGAUGUUCUCCUUAA [Ex Arginine A K4 17]    320 nM
CGAUUCAUGGCGGCCGCCACUCGCGAAGCUCCCGUUACGAUGUCCGCAACAGUGAUGUUGUUGCCGAGGACCGGGCCGAGAUCCA [theeternabot_exclusion_KL_Trp_B_31]    218 nM

Give the measured apparent KD of K4 kissing-loop reporter of ACGUAGUUCUAGGAUACCAGCCAAGAUGCCAGGACAAAAGUCCUGGCAGCCAGUGAUGUUGGCCCUUGGCAGCCUAGAACUACGA [Omei KL Theo B Exc B v9] .
120 nM

Give the measured apparent KD of K4 kissing-loop reporter of UUUUUCGCGUUUGAUACCAGCAGAGUUGUUCGUGUCUGGAACAUGAGUGAUGUUCAUGUCUGCCCUUGGCAGCAAACGGGAGAAG [KL-XTheo-B13] .
124 nM

====

test system: K4 kissing-loop RNA reporter; test: apparent KD of K4 kissing-loop reporter; higher = weaker reporter binding; conditions: Eterna round: R107; input ligand: arginine 13.2 mM;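 note: bound reporter read as fluorescence of individual clusters on recovered sequencing chips by microscopy, with normalized cluster intensities fitted with a binding model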
Could you label it Criterion met if measured apparent KD of K4 kissing-loop reporter is 0.1 µM or higher, and Criterion not met otherwise?

These recorded examples may help you get a feel for the data.
CUUGAUCGAGGAAGGAGCGGGCCGUCAUUGAGCGCAGUGAUGUUGCGGUCGACUAGUCGAGCCCAGGUAGGUCGCCUGGAGUAAG [Xeveis]    Criterion met
GGUGACAGCCAGGAGUGAUGUAUAGAAUAGCGAGGACCGGUACGGCCGCCACUCGUGAAGAGAAGGGAGUGAUGUUCCGUAAUGG [Kazoo C]    Criterion met
GGUAGCAUGGCGGCCGCCACUUACUUCAAUAGGAGUGAUGUUCCUAUUACUAGUAGUGAAAUAAUAAGGACCGGGCCAUGCUACC    Criterion not met
GCGAAGUGAUGUUUCGCCAAUAUUUGAUGAAAGGAUAUCUACUUGAAGAGAAGGUUCAUAUGACUCAAUACCUGACUUGGACCCG [theeternabot_sameState_KL_FMN_A_37]    Criterion not met
CUUGUACAAGUGAUGUUUGUUAUAUCCGAAGGAGCGUCGUACUAGACAGGUAGGUCGCGGAUGAAGAUAGUUUUUUUAAUAUCAU [JR_Nu_SSArginiA_Sub028]    Criterion met

# check: apparent KD of K4 kissing-loop reporter of UGACGUAAAACCGUCGAAUCGCUGUGAGAAGGAGCGGUAAAAUUGCCAGGUAGGUCGCUCACAGCCUCACAGUGAUGUUGUGGGA [Sovetequ] is greater than or equal to 0.1 µM
Criterion met

# check: apparent KD of K4 kissing-loop reporter of AAUAUAGUGAUGUUAUAUAAGGAAAGAAGGCGAGGACCGGUACGGCCGCCACUCGAAAGGUGAGAAGGUGGCGAAGAAGAAAGAA [ExTryptoA.B] is greater than or equal to 0.1 µM
Criterion met

# check: apparent KD of K4 kissing-loop reporter of GGUAGCUAGGUAGGAUAUAGCUAGUGGAGUGAUGUUCCACGAUACACGAGUGAUGUUCGUACCCUGCUAGAAGGGCCUAGCUACC is greater than or equal to 0.1 µM
Criterion met

# check: apparent KD of K4 kissing-loop reporter of AUGCGCGCGGCGGCCGCCACUCGCAUGAGAGUGAUGUUCUCGCCGUGCCCGUAAGGGCGCGGUGUGAGGACCGGGCCGGGCUGCG [#2 Same State - Tryptophan B Attempt #21 (HarryS)] is greater than or equal to 0.1 µM
Criterion not met

# check: apparent KD of K4 kissing-loop reporter of UUUGUAUCGGGAAGGAGCGUGAAUGAUAAUGAAUAUAGUGAUGUUAUAUAUAAGAACGAAUCACAGGUAGGUCGCCCGGAUGAGU [SSArgB.N] is greater than or equal to 0.1 µM
Criterion met

# check: apparent KD of K4 kissing-loop reporter of GUAUCGCUAGGAGGAUAUUUCAAAUCGCCAAUAAAUGGUGAUACGGAGUGAUGUUCCGAUUUACGGAAAGAAGGCCUAGUGAUAC [FMN B 6] is greater than or equal to 0.1 µM
Criterion met

# check: apparent KD of K4 kissing-loop reporter of UGACUACAAAGGAAAUAAUCCUAGUGAUGUUAGGAUAUGCUGAUAAGCAGAAGGAACUGAGAUCGAAAGAUCUCAAAUGUAGUCU [FmnAX 26 Mat Inspired #SwitchBubble #StaticStem #K4Early] is greater than or equal to 0.1 µM
Criterion not met

====

system: MS2 coat protein; test: apparent KD of MS2 coat protein, switch OFF state (with FMN for OFF switches, without FMN for ON switches); designed switch direction (-1 OFF switch, 1 ON switch): -1; higher = weaker reporter binding; conditions: FMN input: 0 or 200 uM; Eterna round: R93 (includes R88 designs)
apparent KD of MS2 coat protein: recorded values
Provide only the numeric value, understood in nM.

Use these answered entries as a reference point.
GUGUACAGAGGAUAUACAUGGGCAUGGAAACAUGCAUCCUCACAUGAGGAUCACCCAUGUAGAAGGCUGUACAC [Ex2: 708]    20.9
AAGAAGUGAGGAUAUGUCUGUGCGAAAAAAAAAAAGUGCAGACAGAAGGCACAUGAGGAUCACCCAUGUGAAAA [Florian 65% 4]    26.7
AAGAAGUGAGGAUAUACGCGAACAAAAAAAAAAAAGAAAGCGUAGAAGGCACAUGAGGAUCACCCAUGUCAAAA [Alfred Victor Espinas]    28.3
GGUUGGCGAGGAUAUACAUGAGGAUCACCCAUGUGAGAGAAAAAAGUGAGGAGGAGCAGUAGAAGGCGCUGACG [salish99-ex3-19]    147

Give the measured apparent KD of MS2 coat protein of AAGAAACAUGAGGAUCACCCAUGUCAGGAUAUCCAAAAGAAAAGAAAAGAAAGAAGAAGGAGAAGGGACAAAGG [Neferkamin Anu] .
40.6

Give the measured apparent KD of MS2 coat protein of GAAAAACAUGAGGAUCACCCAUGUAAGGAUAUGCUGAAAAACACGGAAAAACGUGACAGCAGAAGGUACAAAAG [Mat - Exclusion 1 - Eli mod - D94] .
40

Give the measured apparent KD of MS2 coat protein of AGUCUGAGAGGAUAUACAUAGGAAAAAAAAGUCAGAUCCCUACAUGAGGAUCACCCAUGUAGAAGGCUCUGACA [Ex2 Design 148: Sub-opt 12] .
12.6

====

test system: MS2 coat protein; assay: apparent KD of MS2 coat protein; designed switch direction (-1 OFF switch, 1 ON switch): -1; higher = weaker reporter binding; settings: input ligand: none
apparent KD of MS2 coat protein: recorded values

ACGGCUGAAGGAUAUGCAGUGACCACAAAGGUAUGACUAUCACAUGAGGAUCACCCAUGUAGAAGGUCGGCGCC [Eternabot (L2) Solution 29] (Eterna round: R97, puzzle: Exclusion 2)    14.4 nM
CGUCUGUAAGGAUAUGGUAGCAUUUACAUGAGGAUCACCCAUGUUACAUGGGACUAGUGACUAGAAGGUACGAACG [EX5 #54] (Eterna round: R97, puzzle: Exclusion 5)    142 nM
CCUCAGUGAGGAUAUGGUAGACACAAUCGGGAUUGAGAAGGCCAGAAGGUACAUGAGGAUCACCCAUGUAAUCA [Eternabot (L2) Solution 58] (Eterna round: R97, puzzle: Exclusion 4)    21.9 nM
ACAUGAGGAUCACCCAUGUGGACGUAAAGGCUCAUGUAGAGUGAGGAUAUGUGAGACGAACGAGAACAGAAGGCACAAGACAGG [Deportation 6 - Jieux - Exclusion NG 3] (Eterna round: R96, puzzle: Exclusion NG 3)    19.9 nM

Give the measured apparent KD of MS2 coat protein of CCUUAGUCACAGGAUAUGCUCAUCUAAUGAUGAGCAGAAGGGUGAACAUGAGGAUCACCCAUGUUUAUCAAGGG [Omei Ex6 E3] (Eterna round: R97, puzzle: Exclusion 6) .
274 nM
